Please provide measured pEC50 for the entries that follow.
Target: LXRβ (Homo sapiens, UniProt P55055)
Construct: Co-transfection expression plasmids, comprising full-length LXRα (pCMX-h LXRα or LXRβ (pCMX-hLXRβ))
Assay: LXR/LXRE co-transfection assay (luciferase reporter) in CV-1 cells, LXRβ
Settings: CV-1 cells transfected with pCMX-hLXRβ and LXREx1-Tk-Luciferase, 20 hours incubation, read-out: LXRbeta agonism EC50
Procedure: To measure the ability of compounds to activate or inhibit the transcriptional activity of LXR in a cell based assay, the co-transfection assay was used. It has been shown that LXR functions as a heterodimer with RXR. […] Treatment of transfected cells with an LXR agonist increases the transcriptional activity of LXR, which is measured by an increase in luciferase activity. […]
Numbers only, as −log10 of the molar value.

Solved cases (2 shown):
CHEMICAL_SMILES	pEC50
Cc1nc(-c2ccc3c(c2)OC(F)(F)O3)c(-c2cc(-c3cc(F)c(CO)c(S(C)(=O)=O)c3)ccc2-c2cc(C(F)(F)C(=O)NC(C)C)nn2C)o1	7.23
CC(C)c1nc(-c2cc(-c3cc(F)c(CO)c(S(C)(=O)=O)c3)ccc2-n2ccc(C(F)(F)F)n2)c(-c2ccc(OC(F)(F)F)cc2)o1	7.42

input: # query: pEC50 of entry Cc1nc(-c2ccc(OC(F)(F)F)cc2)c(-c2cc(-c3cc(F)c(CO)c(S(C)(=O)=O)c3)ccc2-c2cc(C(F)(F)F)nn2C)o1
output: 7.80

----------
target: LXRβ (Homo sapiens); construct: Co-transfection expression plasmids, comprising full-length LXRα (pCMX-h LXRα or LXRβ (pCMX-hLXRβ)); expressed in transfected cells; host or cells: CV-1 African green monkey kidney cells, transient transfection with pCMX-hLXRβ; assay: LXR/LXRE co-transfection assay (luciferase reporter) in CV-1 cells, LXRβ; assay type: cell-based; conditions: CV-1 cells, relative to maximum response of high control N-(3-((4-fluorophenyl)-(naphthalene-2-sulfonyl)amino)propyl)-2,2-dimethylpropionamide, read-out: LXRbeta % EFFICACY
Please provide measured Emax for the entries that follow.
Give bare numbers, in %.

Solved cases (2 shown):
CHEMICAL_SMILES	QUANTITY_MEASURED	MEASUREMENT
Cc1nc(-c2ccc3c(c2)OC(F)(F)O3)c(-c2cc(-c3cc(F)c(CO)c(S(C)(=O)=O)c3)ccc2-c2cc(C(=O)NC(C)(C)C#N)nn2C)o1	Emax	24
Cc1nc(-c2ccc3c(c2)OC(F)(F)O3)c(-c2cc(-c3cccc(S(C)(=O)=O)c3)ccc2-n2ccc(CO)n2)o1	Emax	22

Required: Emax, one value per molecule below.
1. Cc1nc(-c2ccc(OC(F)(F)F)cc2)c(-c2cc(-c3cc(F)c(CO)c(S(C)(=O)=O)c3)ccc2-n2cc(C(N)=O)c(C3CC3)n2)o1
2. Cc1nc(-c2ccc(Cl)cc2)c(-c2cc(-c3cccc(S(C)(=O)=O)c3)ccc2-n2ccc(C(F)(F)F)n2)o1
3. Cc1nc(-c2ccc3c(c2)OC(F)(F)O3)c(-c2cc(-c3cc(F)c(CO)c(S(C)(=O)=O)c3)ccc2-c2cc(C(C)(C)O)nn2C)o1
4. Cc1nc(-c2ccc3c(c2)OC(F)(F)O3)c(-c2cc(-c3cccc(S(C)(=O)=O)c3)ccc2-c2cc(C(C)(F)F)nn2C)o1
5. Cc1nc(-c2cc(-c3cccc(S(C)(=O)=O)c3)ccc2-n2nc(C(F)(F)F)cc2Cl)c(-c2ccc3c(c2)OC(F)(F)O3)o1
6. Cc1nc(-c2ccc(OC(F)(F)F)cc2)c(-c2cc(-c3cccc(C4(C(N)=O)CC4)c3)ccc2-n2nc(C(F)(F)F)cc2Cl)o1

output:
1. 30
2. 72
3. 38
4. 87
5. 93
6. 61

Required: Emax, one value per molecule below.
1. Cn1nc(C(=O)NCC(F)(F)F)cc1-c1ccc(-c2cccc(S(C)(=O)=O)c2)cc1-n1nncc1-c1ccc(OC(F)(F)F)cc1
2. Cc1nc(-c2ccc3c(c2)OC(F)(F)O3)c(-c2cc(-c3cc(F)c(CO)c(S(C)(=O)=O)c3)ccc2-n2nc(C(F)(F)F)cc2Cl)o1
3. Cc1cc(C(F)(F)F)n(-c2ccc(-c3cccc(S(C)(=O)=O)c3)cc2-c2nc(C)oc2-c2ccc(OC(F)F)cc2)n1
4. Cc1nc(-c2ccc(OC(F)(F)F)cc2)c(-c2cc(-c3cccc(C(C)(C)C(N)=O)c3)ccc2-n2ccc(CC#N)n2)o1

output:
79
92
40
76

----------
Target: LXRβ (Homo sapiens)
Construct: Co-transfection expression plasmids, comprising full-length LXRα (pCMX-h LXRα or LXRβ (pCMX-hLXRβ))
Sequence (P55055 1-460): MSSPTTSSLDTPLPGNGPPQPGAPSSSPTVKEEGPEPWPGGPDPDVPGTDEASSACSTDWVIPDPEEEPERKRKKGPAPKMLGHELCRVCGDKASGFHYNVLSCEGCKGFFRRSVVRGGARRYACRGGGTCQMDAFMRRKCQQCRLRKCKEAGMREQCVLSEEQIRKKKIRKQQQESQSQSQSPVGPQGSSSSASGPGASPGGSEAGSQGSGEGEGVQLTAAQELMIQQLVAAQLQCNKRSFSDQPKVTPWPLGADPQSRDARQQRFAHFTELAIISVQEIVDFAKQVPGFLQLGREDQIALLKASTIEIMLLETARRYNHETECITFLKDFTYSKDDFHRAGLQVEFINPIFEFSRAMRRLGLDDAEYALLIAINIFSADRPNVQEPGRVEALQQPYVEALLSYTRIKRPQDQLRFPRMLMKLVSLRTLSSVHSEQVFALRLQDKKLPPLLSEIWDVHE
Sequence (P19793 1-462 partner): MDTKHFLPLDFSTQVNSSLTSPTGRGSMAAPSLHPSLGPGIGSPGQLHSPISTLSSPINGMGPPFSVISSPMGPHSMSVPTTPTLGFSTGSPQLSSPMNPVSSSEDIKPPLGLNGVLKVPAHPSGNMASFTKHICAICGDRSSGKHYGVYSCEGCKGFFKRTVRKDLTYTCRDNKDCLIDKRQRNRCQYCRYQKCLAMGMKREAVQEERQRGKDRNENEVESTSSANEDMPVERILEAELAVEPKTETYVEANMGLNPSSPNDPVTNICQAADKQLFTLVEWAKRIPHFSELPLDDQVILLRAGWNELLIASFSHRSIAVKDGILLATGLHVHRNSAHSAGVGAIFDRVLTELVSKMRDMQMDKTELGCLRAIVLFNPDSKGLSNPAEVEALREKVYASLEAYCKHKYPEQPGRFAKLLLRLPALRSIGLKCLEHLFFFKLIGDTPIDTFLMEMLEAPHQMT
Test: LXR/LXRE co-transfection assay (luciferase reporter) in CV-1 cells, LXRβ
Details: CV-1 cells transfected with pCMX-hLXRβ and LXREx1-Tk-Luciferase, 20 hours incubation, read-out: LXRbeta agonism EC50
QUANTITY_MEASURED: EC50 (nM)
Give bare numbers, in nM.

COMPOUND	EC50 (nM)
Cc1nc(-c2ccc3c(c2)OC(F)(F)O3)c(-c2cc(-c3cccc(S(C)(=O)=O)c3)ccc2-c2cc(C(=O)NCC(F)(F)F)nn2C)o1	284
Cc1nc(-c2ccc(Cl)cc2)c(-c2cc(-c3cccc(S(C)(=O)=O)c3)ccc2-n2ccc(C(F)(F)F)n2)o1	116
Cc1nc(-c2ccc(OC(F)(F)F)cc2)c(-c2cc(-c3cccc(C4(C(N)=O)CC4)c3)ccc2-n2nc(C(F)(F)F)cc2Cl)o1	1080
Cc1nc(-c2cc(-c3cccc(S(C)(=O)=O)c3)ccc2-n2ccc(C(F)(F)F)n2)c(-c2ccc(OC(F)(F)F)cc2)o1	92
Cc1nc(-c2ccc3c(c2)OC(F)(F)O3)c(-c2cc(-c3cc(F)c(CO)c(S(C)(=O)=O)c3)ccc2-c2cc(C(F)(F)C#N)nn2C)o1	663
COCC(F)(F)c1cc(-c2ccc(-c3cccc(S(C)(=O)=O)c3)cc2-n2nncc2-c2ccc(OC(F)(F)F)cc2)n(C)n1	163
Cc1nc(-c2ccc3c(c2)OC(F)(F)O3)c(-c2cc(-c3cc(F)c(CO)c(S(C)(=O)=O)c3)ccc2-c2cc(C(C)C#N)nn2C)o1 (stereo not shown)	19
Cc1cc(C(F)(F)F)nn1-c1ccc(-c2cc(F)c(CO)c(S(C)(=O)=O)c2)cc1-n1nncc1-c1ccc(OC(F)(F)F)cc1	32

Required: EC50, one value per compound below.
1. Cc1nc(-c2ccc(OC(F)(F)F)cc2)c(-c2cc(-c3cc(F)c(CO)c(S(C)(=O)=O)c3)ccc2-n2cc(Cl)c(C(F)(F)F)n2)o1
2. Cc1nc(-c2cc(-c3cccc(C(C)(C)C(N)=O)c3)ccc2-n2nc(C(F)(F)F)cc2Cl)c(-c2ccc(OC(F)(F)F)cc2)o1
3. Cc1nc(-c2ccc(OC(F)(F)F)cc2)c(-c2cc(-c3cccc(S(C)(=O)=O)c3)ccc2-n2nc(C(F)(F)F)cc2Cl)o1
4. Cc1nc(-c2ccc3c(c2)OC(F)(F)O3)c(-c2cc(-c3cc(F)c(CO)c(S(C)(=O)=O)c3)ccc2-n2ccc(C(F)(F)F)n2)o1
5. Cc1nc(-c2ccc(OC(F)(F)F)cc2)c(-c2cc(-c3cc(F)c(CO)c(S(C)(=O)=O)c3)ccc2-n2ccc(CC#N)n2)o1

output:
1: 27; 2: 185; 3: 73; 4: 8; 5: 125

Source listed as patent US9751869B2.
